Biological target: Protein farnesyltransferase (Bos taurus, UniProt P29702+P49355)
Assay: In vitro inhibition of farnesyltransferase purified from bovine brain using scintillation proximity assay
Measured endpoint: log10(IC50) (log10 of the value in nM)
A value of 2 here means IC50 of 100 in nM, since values are log10.

In the examples that follow, each entry is paired with its recorded log10(IC50).
Smiles repr: CSCC[C@H](NC(=O)c1cc(Cc2ccccc2)c(COc2cccnc2)cc1-c1ccccc1C)C(=O)O
log10(IC50): 0.00

Smiles repr: CSCC[C@H](NC(=O)c1ccc(CN(C(=O)Cc2ccccc2)c2cccnc2)cc1-c1ccccc1C)C(=O)O
log10(IC50): 1.59

Smiles repr: CSCC[C@H](NC(=O)c1ccc(CN(Cc2ccccc2)Cc2nccs2)cc1-c1ccccc1C)C(=O)O
log10(IC50): 0.85

Smiles repr: CSCC[C@H](NC(=O)c1ccc(CN(c2cccnc2)S(=O)(=O)c2ccccc2)cc1-c1ccccc1C)C(=O)O
log10(IC50): 0.85

Smiles repr: CCCCc1cc(C(=O)N[C@@H](CCSC)C(=O)O)c(-c2ccccc2C)cc1COc1cccnc1
log10(IC50): 1.04

Smiles repr: CSCC[C@H](NC(=O)c1cc(CC(C)C)c(COc2cccnc2)cc1-c1ccccc1C)C(=O)O
log10(IC50): 1.46

Smiles repr: CSCC[C@H](NC(=O)c1ccc(CN(Cc2ccccc2)c2ccccc2)cc1-c1ccccc1C)C(=O)O
log10(IC50): 0.15

Smiles repr: CSCC[C@H](NC(=O)c1ccc(CN(Cc2cc(F)cc(F)c2)c2cccnc2)cc1-c1ccccc1C)C(=O)O
log10(IC50): 0.15

Note to self: log10(IC50) recorded for CSCC[C@H](NC(=O)c1cc(-c2ccc(C)cc2)c(COc2cccnc2)cc1-c1ccccc1C)C(=O)O was 2.57

Note to self: log10(IC50) recorded for CSCC[C@H](NC(=O)c1ccc(CN(Cc2ccccc2)c2cncc(F)c2)cc1-c1ccccc1C)C(=O)O was -1.00

###

Molecular target: Protein farnesyltransferase (Bos taurus, UniProt P29702+P49355)
Assay: In vitro inhibition of farnesyltransferase purified from bovine brain using scintillation proximity assay
Listed here are compounds together with their documented pIC50.
A value of pIC50 is the negative decimal logarithm of a concentration given in moles per litre.

In the examples that follow, each entry is paired with its recorded pIC50.
Smiles repr: CSCC[C@H](NC(=O)c1ccc(CN(Cc2ccccc2)c2cncnc2)cc1-c1ccccc1C)C(=O)O
pIC50: 9.40
//
Smiles repr: CSCC[C@H](NC(=O)c1ccc(CN(C(=O)c2ccccc2)c2cccnc2)cc1-c1ccccc1C)C(=O)O
pIC50: 7.28
//
Smiles repr: CSCC[C@H](NC(=O)c1ccc(CNc2cccnc2)cc1-c1ccccc1C)C(=O)O
pIC50: 9.40
//
Smiles repr: CSCC[C@H](NC(=O)c1ccc(CN(Cc2cc(F)cc(F)c2)c2ccccc2)cc1-c1ccccc1C)C(=O)O
pIC50: 9.40
//
Smiles repr: CSCC[C@H](NC(=O)c1ccc(CN(Cc2ccccc2)c2cccnc2)cc1-c1ccccc1C)C(=O)O
pIC50: 10.00
//
Smiles repr: CSCC[C@H](NC(=O)c1ccc(CN(Cc2cc(F)cc(F)c2)Cc2cncs2)cc1-c1ccccc1C)C(=O)O
pIC50: 9.70

Note to self: pIC50 recorded for CSCC[C@H](NC(=O)c1ccc(CN(Cc2ccccc2)c2cnccn2)cc1-c1ccccc1C)C(=O)O was 9.10

Note to self: pIC50 recorded for CCc1cc(C(=O)N[C@@H](CCSC)C(=O)O)c(-c2ccccc2C)cc1COc1cccnc1 was 7.96

###

Molecular target: Protein farnesyltransferase (Bos taurus, UniProt P29702+P49355)
Assay: In vitro inhibition of farnesyltransferase purified from bovine brain using scintillation proximity assay
Listed here are molecules together with their documented pIC50.
A value of pIC50 is the negative decimal logarithm of a concentration given in moles per litre.

Smiles repr: CSCC[C@H](NC(=O)c1ccc(CN(Cc2ccccc2)Cc2cncs2)cc1-c1ccccc1C)C(=O)O
Recorded measurement: 9.40
//
Smiles repr: CSCC[C@H](NC(=O)c1cc(CC2CCCCC2)c(COc2cccnc2)cc1-c1ccccc1C)C(=O)O
Recorded measurement: 7.92
//
Smiles repr: CSCC[C@H](NC(=O)c1ccc(CN(CC2CCCCC2)c2cccnc2)cc1-c1ccccc1C)C(=O)O
Recorded measurement: 10.00
//
Smiles repr: CSCC[C@H](NC(=O)c1ccc(CN(Cc2ccccc2)Cc2cscn2)cc1-c1ccccc1C)C(=O)O
Recorded measurement: 7.80
//
Smiles repr: CCCCCc1cc(C(=O)N[C@@H](CCSC)C(=O)O)c(-c2ccccc2C)cc1COc1cccnc1
Recorded measurement: 8.70
//
Smiles repr: CSCC[C@H](NC(=O)c1cc(-c2cccs2)c(COc2cccnc2)cc1-c1ccccc1C)C(=O)O
Recorded measurement: 6.29

Note to self: pIC50 recorded for CSCC[C@H](NC(=O)c1cc(-c2cc(Cl)cc(Cl)c2)c(COc2cccnc2)cc1-c1ccccc1C)C(=O)O was 7.02

Note to self: pIC50 recorded for CSCC[C@H](NC(=O)c1cc(CCc2ccccc2)c(COc2cccnc2)cc1-c1ccccc1C)C(=O)O was 9.30

###

Listed here are compounds together with their documented AUC.
Test: Area under the curve during systemic administration
Type: ADME
Design: concentration or dose not given beside the values
Conditions: other: systemic administration
State just the number; it will be interpreted in ng·h/mL.

In the examples that follow, each entry is paired with its recorded AUC.
Smiles repr: CSCC[C@H](NC(=O)c1ccc(CN(Cc2ccccc2)c2ccccc2)cc1-c1ccccc1C)C(=O)O
Recorded measurement: 600

Smiles repr: CSCC[C@H](NC(=O)c1ccc(CN(Cc2ccccc2)c2cncnc2)cc1-c1ccccc1C)C(=O)O
Recorded measurement: 20

Smiles repr: CSCC[C@H](NC(=O)c1ccc(CN(Cc2ccccc2)c2cccnc2)cc1-c1ccccc1C)C(=O)O
Recorded measurement: 500

Smiles repr: CSCC[C@H](NC(=O)c1ccc(CN(Cc2ccccc2)c2cncc(F)c2)cc1-c1ccccc1C)C(=O)O
Recorded measurement: 400

Smiles repr: CSCC[C@H](NC(=O)c1ccc(CN(CC2CCCCC2)c2cccnc2)cc1-c1ccccc1C)C(=O)O
Recorded measurement: 100

Note to self: AUC recorded for CSCC[C@H](NC(=O)c1ccc(CN(Cc2ccccc2)c2cnccn2)cc1-c1ccccc1C)C(=O)O was 900

Note to self: AUC recorded for CSCC[C@H](NC(=O)c1ccc(CN(Cc2cc(F)cc(F)c2)c2cccnc2)cc1-c1ccccc1C)C(=O)O was 140

Note to self: AUC recorded for CSCC[C@H](NC(=O)c1ccc(CN(Cc2ccccc2)Cc2cncs2)cc1-c1ccccc1C)C(=O)O was 1600

Note to self: AUC recorded for CSCC[C@H](NC(=O)c1ccc(CN(Cc2cc(F)cc(F)c2)Cc2cncs2)cc1-c1ccccc1C)C(=O)O was 300

Note to self: AUC recorded for CSCC[C@H](NC(=O)c1ccc(CN(Cc2cc(F)cc(F)c2)c2ccccc2)cc1-c1ccccc1C)C(=O)O was 10800

###

Assay: Portal vein area under the curve after intraduodenal administration
Parameters: concentration or dose not given beside the values
So basically: is AUC under 3000 ng·h/mL? Then label 1. Not under? Then label 0.

Example cases with answers are listed next.
Smiles repr: CSCC[C@H](NC(=O)c1ccc(CN(Cc2ccccc2)c2ccccc2)cc1-c1ccccc1C)C(=O)O
Group label: label 1
//
Smiles repr: CSCC[C@H](NC(=O)c1ccc(CN(Cc2cc(F)cc(F)c2)c2ccccc2)cc1-c1ccccc1C)C(=O)O
Group label: label 0
//
Smiles repr: CSCC[C@H](NC(=O)c1ccc(CN(Cc2ccccc2)c2cncnc2)cc1-c1ccccc1C)C(=O)O
Group label: label 0
//
Smiles repr: CSCC[C@H](NC(=O)c1ccc(CN(Cc2cc(F)cc(F)c2)Cc2cncs2)cc1-c1ccccc1C)C(=O)O
Group label: label 1
//
Smiles repr: CSCC[C@H](NC(=O)c1ccc(CN(Cc2ccccc2)Cc2cncs2)cc1-c1ccccc1C)C(=O)O
Group label: label 0
//
Smiles repr: CSCC[C@H](NC(=O)c1ccc(CN(Cc2ccccc2)c2cnccn2)cc1-c1ccccc1C)C(=O)O
Group label: label 1

Problem: For the compound CSCC[C@H](NC(=O)c1ccc(CN(Cc2ccccc2)c2cncc(F)c2)cc1-c1ccccc1C)C(=O)O , is AUC under 3000 ng·h/mL? label 1

Problem: For the compound CSCC[C@H](NC(=O)c1ccc(CN(CC2CCCCC2)c2cccnc2)cc1-c1ccccc1C)C(=O)O , is AUC under 3000 ng·h/mL? label 1

Problem: For the compound CSCC[C@H](NC(=O)c1ccc(CN(Cc2cc(F)cc(F)c2)c2cccnc2)cc1-c1ccccc1C)C(=O)O , is AUC under 3000 ng·h/mL? label 0

###

Listed here are compounds together with their documented half-life.
Assay: Biological half-life in the rat
Assay type: ADME, organism-based
Details: in vivo

In the examples that follow, each entry is paired with its recorded half-life.
Smiles repr: CSCC[C@H](NC(=O)c1ccc(CN(Cc2ccccc2)c2cccnc2)cc1-c1ccccc1C)C(=O)O
half-life: 49.8 min
//
Smiles repr: CSCC[C@H](NC(=O)c1ccc(CN(CC2CCCCC2)c2cccnc2)cc1-c1ccccc1C)C(=O)O
half-life: < 24 min
//
Smiles repr: CSCC[C@H](NC(=O)c1ccc(CN(Cc2ccccc2)c2ccccc2)cc1-c1ccccc1C)C(=O)O
half-life: 48 min
//
Smiles repr: CSCC[C@H](NC(=O)c1ccc(CN(Cc2cc(F)cc(F)c2)Cc2cncs2)cc1-c1ccccc1C)C(=O)O
half-life: 67.8 min
//
Smiles repr: CSCC[C@H](NC(=O)c1ccc(CN(Cc2cc(F)cc(F)c2)c2ccccc2)cc1-c1ccccc1C)C(=O)O
half-life: 114 min

Now, please, on to the next compound.
Note to self: half-life recorded for CSCC[C@H](NC(=O)c1ccc(CN(Cc2ccccc2)c2cncc(F)c2)cc1-c1ccccc1C)C(=O)O was < 24 min

Origin of values: ChEMBL document CHEMBL1132658
